- Test system: PLK3;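 note: KINOMEscan kinase panel screen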
- testConditions: concentration: 1 μM, replicates: in singlicate; n = 1
Item-by-item account of %Inh
readoutKind: %Inh

molecule="Cc1ccc(NC(=O)Nc2cc(C(C)(C)C)nn2-c2ccccc2)cc1 [GSK1014915]" readoutkind=%Inh result=0%
molecule="Cc1ccc(-c2cc(-c3c[nH]nc3-c3ccccn3)ccn2)cc1 [GW684088]" readoutkind=%Inh result=0%
molecule=Cn1ccc2ncnc(Oc3ccc(NC(=O)Nc4ccccc4)cc3)c21 readoutkind=%Inh result=0%
molecule="CN(C)CCN(C)C(=O)c1cc(-c2ccncc2)c(-c2ccc(Cl)c(O)c2)o1.Cl.Cl [SB-710397]" readoutkind=%Inh result=0%
molecule="Fc1cc(Cl)ccc1Nc1ccnc2cc(-c3ccc(CN4CCCCC4)o3)ccc12 [GW560116]" readoutkind=%Inh result=0%
molecule="Cc1cc(-c2ccc3c(c2)CC[C@@H](N[C@@H](C)c2ccccc2)C3)cnc1N.Cl [GW412617]" readoutkind=%Inh result=0%
molecule="CSc1nn2c(=O)cc(N3CCOCC3)nc2n1Cc1cccc(C(F)(F)F)c1C [GSK2363608]" readoutkind=%Inh result=0%
molecule=CC(C)(C)c1ccc(C(=O)Nc2cn3cc(Cl)ccc3n2)cc1 readoutkind=%Inh result=1%
molecule="Cc1cc(NCC(c2ccccc2)c2ccccc2)nc(NCc2ccc(C(F)(F)F)cc2)n1 [GW497681]" readoutkind=%Inh result=0%
molecule=CS(=O)(=O)c1ccc(-c2c(-c3ncn[nH]3)sc(N3CCOCC3)c2C#N)cc1 readoutkind=%Inh result=16%
molecule="O=C(Nc1n[nH]c2nc(-c3nccs3)c(Br)cc12)C1CCCC1 [SB-742609]" readoutkind=%Inh result=0%
molecule="CS(=O)(=O)c1ccc(-c2nc3n(c2-c2ccncc2)CCC3)cc1 [SKF-105942]" readoutkind=%Inh result=0%
molecule="Cc1ccc(NC(=O)Nc2cccc(Cl)c2)cc1-c1ccc(C(=O)Nc2ccncc2)cc1 [GSK1398468]" readoutkind=%Inh result=1%
molecule="Cc1ccccc1-n1cnc2c(N)ncnc21 [SKF-97510]" readoutkind=%Inh result=0%
molecule="Fc1cc(Cl)ccc1Nc1ccnc2cc(I)ccc12 [GW551191]" readoutkind=%Inh result=0%
molecule=O=C(O)COc1ncnc2cc(-c3ccc4[nH]ncc4c3)sc12 readoutkind=%Inh result=12%
molecule="CCn1c(-c2cccnc2O)nc2cnccc21 [SB-736715]" readoutkind=%Inh result=0%
molecule="O=C1NC(=O)C(N2CCc3ccccc32)=C1c1ccccc1Cl [SB-373598]" readoutkind=%Inh result=0%
molecule="CCCc1ccc(S(=O)(=O)NC2CCN(c3ccnc(Nc4ccc(F)cc4)n3)C2)cc1 (stereo not shown) [GSK1379715]" readoutkind=%Inh result=0%
